# Method Summary: PK study in mice, single dose i.p.
# Format: in vivo
# Assay Context: mouse, serum, ip, single dose 50 mg/kg i.p.
Metric: Tmax

Asked: Report Tmax for `CN(C)c1cc(NC(=O)CNC(C)(C)C)c(O)c2c1C[C@H]1C[C@H]3[C@H](N(C)C)C(O)=C(C(N)=O)C(=O)[C@@]3(O)C(O)=C1C2=O` please.
Given back: ~30 min

* * *

# Test system: leukemia cell lines
# Method Summary: Cell growth and viability, MTS assay, 72 hours
# Format: cell-based
# Assay Context: tested leukemia cell lines
Metric: IC50

Asked: // fetch leukemia cell lines IC50 for CN(C)c1cc(NC(=O)CNC(C)(C)C)c(O)c2c1C[C@H]1C[C@H]3[C@H](N(C)C)C(O)=C(C(N)=O)C(=O)[C@@]3(O)C(O)=C1C2=O [tigecycline]
Given back: 5 to 8 µM
